- method: NCI Yeast Anticancer Drug Screen. Data for the rad50 strain (AID 155);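 further: 0% = growth of vehicle-only cultures of the same strain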
- measurement.setup: S. cerevisiae rad50 strain growth inhibition, hits give high values; at 50.0 µM unless noted
This is part of a sample that, as a whole, favours compounds with a hit. Of some 79,000 tested, about 15% had one in any assay.
readout.label: growth inhibition (%)
Supply the numeric figure in %, leaving out any unit text.

These solved cases illustrate the format of a correct answer.
                                   molecule  quantitative_result
0  O=[N+]([O-])c1cc(F)ccc1S(=O)(=O)c1ccccc1                 31.6
1  COc1cccc(-c2cc(=O)c3cc(N4CCOCC4)ccc3[nH]2)c1                -35.9
2  CN(C)c1ccc(O[Si](Oc2ccc(N(C)C)cc2)(Oc2ccc(N(C)C)cc2)Oc2ccc(N(C)C)cc2)cc1                 27.6
3  O=C(O)COc1ccc([N+](=O)[O-])cc1[N+](=O)[O-]                 20.9
4  COC(=O)Nn1c(C)c(C(=O)OC)c(C(=O)Nc2ccccc2)c1-c1ccccc1                  6.1

Ask | Quick check: growth inhibition of O=C(NC(=O)c1ccccc1)Oc1cccc2ccccc12 ?
Reply | 18.3

Ask | Quick check: growth inhibition of CC(C)=CC1C(C(=O)Oc2ccccc2C(C)C)C1(C)C (stereo not drawn) ?
Reply | -3.8

Ask | Quick check: growth inhibition of N#C/C(=C/c1ccccc1)c1ccccc1 ?
Reply | 42.5

----------
- method: NCI Yeast Anticancer Drug Screen. Data for the mec2-1 strain (AID 157)
- measurement.setup: S. cerevisiae mec2-1 strain, hits give high values; at 50.0 µM unless noted
The panel holds about 79,000 compounds, 15% with a hit somewhere; the sample as a whole holds those more often.
Each item that follows carries a reported growth inhibition.
Supply the numeric figure in %, leaving out any unit text.

These solved cases illustrate the format of a correct answer.
In [3]: df
Out[3]:
                                   compound      readout_label  units_symbol  quantitative_result
0  O=C(Nc1ccccc1)C12CCC(CC1Br)C2 (stereo unspecified)  growth inhibition             %                -9.25
1                         O=C(O)CCNCCC(=O)O  growth inhibition             %                -6.75
2        CCN(CC)CCN(C(=O)C(C)(C)C)c1ccccc1N  growth inhibition             %                -27.9
3  C[C@H]1CC(=O)[C@@]2(O)C#C/C=C\C#C[C@@H]3Nc4c(cc(O)c5c4C(=O)c4ccccc4C5=O)[C@]24O[C@]314  growth inhibition             %                   82
4  COc1cccc(C2c3cc4c(cc3OC(NNS(=O)(=O)c3ccc(C)cc3)C2C)OCO4)c1OC (stereo unspecified)  growth inhibition             %                 4.55

Ask | Quick check: growth inhibition of O=P(O)(O)OCC1OC(n2cnc3c(=S)nc[nH]c32)C(O)C1O (stereo unspecified) ?
Reply | 3.95

Ask | Quick check: growth inhibition of Nc1ccc(Cc2cc([N+](=O)[O-])cc([N+](=O)[O-])c2)cc1 ?
Reply | -1.75

Ask | Quick check: growth inhibition of COC1OC(CO)C(O)C1OS(C)(=O)=O (stereo unspecified) ?
Reply | -4.25

Ask | Quick check: growth inhibition of O=C(O)c1c(-c2nccc3ccccc23)[nH]c(-c2ccccc2)c1S(=O)(=O)O ?
Reply | 5.7

Ask | Quick check: growth inhibition of CC(C)(C)OC(=O)/N=C/c1c(O)c2ccccc2oc1=O ?
Reply | -20.5

Ask | Quick check: growth inhibition of C1COC2SC3=C(SC(=C4SC5=C(SCCS5)S4)S3)SC2O1 (stereo unspecified) ?
Reply | -2.05

Ask | Quick check: growth inhibition of Nc1ccc(S(=O)(=O)CCCl)cc1 ?
Reply | 0.95

Ask | Quick check: growth inhibition of CC(CN(CP(=O)([O-])[O-])CP(=O)([O-])[O-])N(CP(=O)([O-])[O-])CP(=O)([O-])[O-].N.N.[Pt+2] (stereo unspecified) ?
Reply | -20.5
